# credit: patent US20260007601A1

- PROTOCOL_TEXT: Encapsulation rate, drug loading concentration and total RNA concentration detection (RiboGreen)
- Type: physicochemical
Recorded measurements of total RNA concentration, times that of HHMA, one per entry
Numeric answer only, unit times assumed.

* CCCCCCCCCCOC(=O)CCCN(CCCCCC(=O)OCC(CCCCCCCC)CCCCCCCC)CCN(C)CCO [YK-207] | 1.15

total RNA concentration, times that of HHMA measured on CCCCCCCCCCCOC(=O)CCCCCN(CCCCCCCC(=O)OC(CCCCCCCC)CCCCCCCC)CCN(C)CCO [YK-201] = 1.19

total RNA concentration, times that of HHMA measured on CCCCCCCCCCCOC(=O)CCCCCN(CCCCCCCC(=O)OC(CCCCCCC)CCCCCCC)CCN(C)CCO [YK-206] = 1.10

total RNA concentration, times that of HHMA measured on CCCCCCCCC(CCCCCCCC)COC(=O)CCCCCN(CCCCCC(=O)OCC(CCCCCCCC)CCCCCCCC)CCN(C)CCO [YK-209] = 1.15

total RNA concentration, times that of HHMA measured on CCCCCCCCCCCOC(=O)CCCCCN(CCCCCCCC(=O)OCC(CCCCCCCC)CCCCCCCC)CCN(C)CCO [YK-202] = 1.14
